- Assay system: DNA cytosine-5 methyltransferase (DCMTase, Dnmt1) (Mus musculus, UniProt P13864 P13864:1-1620)
- Sequence (P13864 whole entry, one chain of several): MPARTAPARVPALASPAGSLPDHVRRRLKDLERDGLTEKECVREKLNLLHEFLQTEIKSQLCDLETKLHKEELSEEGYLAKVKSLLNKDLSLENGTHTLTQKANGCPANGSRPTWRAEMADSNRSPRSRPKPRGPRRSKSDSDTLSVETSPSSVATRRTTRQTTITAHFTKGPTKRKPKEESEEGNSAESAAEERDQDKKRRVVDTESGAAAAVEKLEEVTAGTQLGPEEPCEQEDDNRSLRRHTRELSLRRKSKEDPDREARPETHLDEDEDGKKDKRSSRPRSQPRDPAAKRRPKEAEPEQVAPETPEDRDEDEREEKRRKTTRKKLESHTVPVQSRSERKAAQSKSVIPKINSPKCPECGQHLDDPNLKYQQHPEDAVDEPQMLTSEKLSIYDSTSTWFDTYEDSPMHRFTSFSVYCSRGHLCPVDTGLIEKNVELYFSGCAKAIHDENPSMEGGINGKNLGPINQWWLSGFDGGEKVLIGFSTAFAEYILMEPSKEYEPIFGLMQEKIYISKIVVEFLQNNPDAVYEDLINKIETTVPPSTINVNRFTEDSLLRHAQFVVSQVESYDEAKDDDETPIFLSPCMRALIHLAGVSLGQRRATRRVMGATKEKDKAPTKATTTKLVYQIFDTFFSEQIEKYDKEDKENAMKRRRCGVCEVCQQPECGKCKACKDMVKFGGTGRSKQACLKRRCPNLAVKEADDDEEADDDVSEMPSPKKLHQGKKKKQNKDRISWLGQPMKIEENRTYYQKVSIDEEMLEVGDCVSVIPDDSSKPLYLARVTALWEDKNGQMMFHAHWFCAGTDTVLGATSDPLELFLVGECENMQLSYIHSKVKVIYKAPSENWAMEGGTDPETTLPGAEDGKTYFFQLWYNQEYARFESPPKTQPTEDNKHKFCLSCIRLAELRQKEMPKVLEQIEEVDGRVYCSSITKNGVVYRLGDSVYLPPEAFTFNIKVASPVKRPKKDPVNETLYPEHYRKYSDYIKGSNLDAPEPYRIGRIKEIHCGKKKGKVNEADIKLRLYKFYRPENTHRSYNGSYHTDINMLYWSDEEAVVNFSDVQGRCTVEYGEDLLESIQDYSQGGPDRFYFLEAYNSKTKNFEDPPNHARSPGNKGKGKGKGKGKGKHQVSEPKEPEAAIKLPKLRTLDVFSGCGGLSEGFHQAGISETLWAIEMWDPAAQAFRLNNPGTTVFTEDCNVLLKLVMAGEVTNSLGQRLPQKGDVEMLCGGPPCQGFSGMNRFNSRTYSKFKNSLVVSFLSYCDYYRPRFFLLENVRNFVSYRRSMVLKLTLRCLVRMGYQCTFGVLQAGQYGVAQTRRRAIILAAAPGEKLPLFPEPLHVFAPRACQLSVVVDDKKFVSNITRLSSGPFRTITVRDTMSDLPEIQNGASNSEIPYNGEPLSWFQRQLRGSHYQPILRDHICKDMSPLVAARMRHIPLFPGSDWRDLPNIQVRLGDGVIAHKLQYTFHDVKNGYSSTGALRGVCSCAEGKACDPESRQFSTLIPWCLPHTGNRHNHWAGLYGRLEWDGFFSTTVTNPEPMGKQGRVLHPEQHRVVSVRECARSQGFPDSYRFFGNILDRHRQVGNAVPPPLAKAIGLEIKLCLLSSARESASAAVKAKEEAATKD
- Protocol text: EMSA; unit printed as mM (text indicates micromolar); 100 nM enzyme, DNA varied; Hepes pH 7.4, 10 mM EDTA, on ice, no AdoMet
- Study conditions: tags: none; purified from mouse erythroleukemia (MEL) cells; label: 32P
Property name: pKd
Bear in mind: pKd is minus log10 of a mol/L concentration; give just that figure.

The binder listed as GC-box a/bMET (dsDNA, 5mC at position 15 of strand b (hemi-methylated CpG)) DNA 1: GGGAATTCAAGGGGCGGGGCAAGGATCCAG DNA 2: CTGGATCCTTGCCCCGCCCCTTGAATTCCC has a reported pKd of 6.44
